- testTarget: Hepatocyte growth factor receptor (Homo sapiens, UniProt P08581)
- Sequence (P08581 whole entry): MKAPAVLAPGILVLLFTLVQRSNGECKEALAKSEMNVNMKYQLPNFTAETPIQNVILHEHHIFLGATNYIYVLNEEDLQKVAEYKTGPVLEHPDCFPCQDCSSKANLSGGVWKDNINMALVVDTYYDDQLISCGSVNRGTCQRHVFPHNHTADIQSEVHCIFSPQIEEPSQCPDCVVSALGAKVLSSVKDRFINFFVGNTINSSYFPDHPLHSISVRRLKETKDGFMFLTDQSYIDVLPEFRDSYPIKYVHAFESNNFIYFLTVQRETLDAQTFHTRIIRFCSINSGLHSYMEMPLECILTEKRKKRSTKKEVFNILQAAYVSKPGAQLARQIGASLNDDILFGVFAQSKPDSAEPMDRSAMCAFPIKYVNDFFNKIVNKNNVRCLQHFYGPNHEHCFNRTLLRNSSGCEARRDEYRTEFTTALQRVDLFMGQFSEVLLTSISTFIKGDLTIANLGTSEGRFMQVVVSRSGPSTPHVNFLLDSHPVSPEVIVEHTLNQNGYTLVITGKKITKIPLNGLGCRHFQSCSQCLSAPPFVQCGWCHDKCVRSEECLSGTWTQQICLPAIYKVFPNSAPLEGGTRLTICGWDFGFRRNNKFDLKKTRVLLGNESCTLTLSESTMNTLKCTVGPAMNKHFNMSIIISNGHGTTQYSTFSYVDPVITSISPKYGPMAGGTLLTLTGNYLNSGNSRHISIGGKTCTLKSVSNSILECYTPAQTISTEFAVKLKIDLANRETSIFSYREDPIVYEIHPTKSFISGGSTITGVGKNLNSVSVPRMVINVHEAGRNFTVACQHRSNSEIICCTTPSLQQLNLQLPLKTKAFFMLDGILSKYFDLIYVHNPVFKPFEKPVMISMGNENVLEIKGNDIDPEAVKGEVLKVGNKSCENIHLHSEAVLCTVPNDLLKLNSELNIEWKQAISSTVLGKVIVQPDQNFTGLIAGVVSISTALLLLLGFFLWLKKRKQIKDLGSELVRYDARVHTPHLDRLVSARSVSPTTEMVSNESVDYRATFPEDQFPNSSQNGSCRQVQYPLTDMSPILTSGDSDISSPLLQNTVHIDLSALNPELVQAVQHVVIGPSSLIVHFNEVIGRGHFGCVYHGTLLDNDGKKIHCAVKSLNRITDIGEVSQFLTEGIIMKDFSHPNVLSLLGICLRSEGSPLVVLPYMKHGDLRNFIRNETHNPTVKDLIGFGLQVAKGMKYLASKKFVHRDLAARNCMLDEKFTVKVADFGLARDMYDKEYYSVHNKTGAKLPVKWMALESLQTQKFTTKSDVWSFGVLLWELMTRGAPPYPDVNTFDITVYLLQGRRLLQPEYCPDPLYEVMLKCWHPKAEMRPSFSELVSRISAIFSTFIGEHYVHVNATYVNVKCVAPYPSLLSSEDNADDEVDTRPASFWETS
measuredQuantity: IC50

[in] Identify the reported IC50 for the following entry. `Cc1cn2c(-c3cn[nH]c3)cnc2c(Nc2cc(CN3CCC(F)(F)C3)ns2)n1.Cl`
[out] > 100 nM

* * *

- experimentalDetails: AUC (0 to 24 hrs) in CD1 mouse at 3 mg/kg, iv
- Format: ADME, organism-based
- Set-up: time < 24 hr, dose 3 mg/kg, route intravenous
- experimentalContext: plasma
measuredQuantity: AUC(0-t) at 24 h (µM·h)
// units = µM·h; emit number, no label

[[record]]
cpdsmiles = "Cc1cn2c(-c3cn[nH]c3)cnc2c(Nc2cc(CN3CCC(F)(F)C3)ns2)n1.Cl"
measuredquantity = "AUC(0-t) at 24 h"
result = 0.9


[in] Identify the reported AUC(0-t) at 24 h for the following entry. `Cl.[2H]C([2H])(c1cc(Nc2nc(C)cn3c(-c4cn[nH]c4)cnc23)sn1)N1CCC(F)(F)C1`
[out] 5.9

* * *

Reported values of pIC50 for individual entries
- testTarget: Rho-associated protein kinase 2 (Homo sapiens)
- Sequence (O75116 whole entry): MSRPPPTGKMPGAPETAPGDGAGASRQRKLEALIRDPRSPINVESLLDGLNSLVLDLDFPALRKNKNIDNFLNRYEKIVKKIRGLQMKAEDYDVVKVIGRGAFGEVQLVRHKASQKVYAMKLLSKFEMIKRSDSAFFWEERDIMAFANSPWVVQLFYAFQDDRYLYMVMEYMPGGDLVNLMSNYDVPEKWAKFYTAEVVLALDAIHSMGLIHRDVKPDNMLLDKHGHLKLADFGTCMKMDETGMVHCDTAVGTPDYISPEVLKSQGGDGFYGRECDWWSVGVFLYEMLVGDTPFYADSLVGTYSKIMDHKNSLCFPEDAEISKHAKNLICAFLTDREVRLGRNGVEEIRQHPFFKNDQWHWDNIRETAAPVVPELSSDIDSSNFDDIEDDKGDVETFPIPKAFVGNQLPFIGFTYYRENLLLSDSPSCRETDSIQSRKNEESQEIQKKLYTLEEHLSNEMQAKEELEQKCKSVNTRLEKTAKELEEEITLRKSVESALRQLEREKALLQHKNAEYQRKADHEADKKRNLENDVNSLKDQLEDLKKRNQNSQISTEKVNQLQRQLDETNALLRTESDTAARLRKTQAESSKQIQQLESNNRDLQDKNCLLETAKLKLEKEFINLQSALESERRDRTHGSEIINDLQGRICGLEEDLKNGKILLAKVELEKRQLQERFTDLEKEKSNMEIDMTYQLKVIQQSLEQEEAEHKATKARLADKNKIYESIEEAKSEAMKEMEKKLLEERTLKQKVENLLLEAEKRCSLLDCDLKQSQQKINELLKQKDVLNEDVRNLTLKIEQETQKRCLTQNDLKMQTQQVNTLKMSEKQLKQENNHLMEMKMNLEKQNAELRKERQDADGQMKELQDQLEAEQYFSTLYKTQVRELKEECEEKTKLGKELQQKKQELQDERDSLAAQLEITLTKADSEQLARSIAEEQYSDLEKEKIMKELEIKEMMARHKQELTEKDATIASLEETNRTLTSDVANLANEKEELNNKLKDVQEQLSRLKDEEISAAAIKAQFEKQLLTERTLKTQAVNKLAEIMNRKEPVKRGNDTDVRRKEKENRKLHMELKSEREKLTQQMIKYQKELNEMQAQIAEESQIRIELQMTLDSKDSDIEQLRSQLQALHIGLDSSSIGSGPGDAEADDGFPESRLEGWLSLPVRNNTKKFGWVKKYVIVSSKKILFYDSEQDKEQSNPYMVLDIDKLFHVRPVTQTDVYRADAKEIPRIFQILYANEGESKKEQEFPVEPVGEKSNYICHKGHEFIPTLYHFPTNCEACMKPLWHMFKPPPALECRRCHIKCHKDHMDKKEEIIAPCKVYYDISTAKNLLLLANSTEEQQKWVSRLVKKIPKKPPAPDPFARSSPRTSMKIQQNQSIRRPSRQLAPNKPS
- experimentalDetails: Inhibition of ROCK2
pIC50: −log10 of the molar value.

[in] Report measured pIC50 on Rho-associated protein kinase 2 (Homo sapiens); entry: `Cc1cn2c(-c3cn[nH]c3)cnc2c(Nc2cc(CN3CCC(F)(F)C3)ns2)n1.Cl`
[out] < 7.00

[in] Report measured pIC50 on Rho-associated protein kinase 2 (Homo sapiens); entry: `Cl.[2H]C([2H])(c1cc(Nc2nc(C)cn3c(-c4cn[nH]c4)cnc23)sn1)N1CCC(F)(F)C1`
[out] < 7.00

[in] Report measured pIC50 on Rho-associated protein kinase 2 (Homo sapiens); entry: `CCN(Cc1cc(Nc2nc(C)cn3c(-c4cn[nH]c4)cnc23)sn1)C(C)(C)CO`
[out] < 7.00

* * *

- experimentalDetails: Oral AUC in cynomolgus monkey at 10 mg/kg, po
- Assay type: ADME, organism-based, Macaca fascicularis
- Parameters: dose 10 mg/kg, route oral
- experimentalContext: in vivo
Reported values of AUC for individual entries
Returns: string containing the number followed by the unit.

[[record]]
cpdsmiles = "Cc1cn2c(-c3cn[nH]c3)cnc2c(Nc2cc(CNCCC(F)(F)F)ns2)n1.Cl"
result = "0.03 µM·h"

[[record]]
cpdsmiles = "Cc1cn2c(-c3cn[nH]c3)cnc2c(Nc2cc(CN3CC(F)(F)C3)ns2)n1.O=C(O)C(F)(F)F"
result = "0.1 µM·h"

[[record]]
cpdsmiles = "Cc1cn2c(-c3cn[nH]c3)cnc2c(Nc2cc(CN3CCC(F)(F)C3)ns2)n1.Cl"
result = "0.8 µM·h"


# next molecule below
[in] Identify the reported AUC for the following entry. `Cc1cn2c(-c3cn[nH]c3)cnc2c(Nc2cc(CN3CCC(F)CC3)ns2)n1.Cl`
[out] 0.4 µM·h

* * *

- testTarget: Serine/threonine-protein kinase Chk1 (Homo sapiens, UniProt O14757)
- Sequence (O14757 whole entry): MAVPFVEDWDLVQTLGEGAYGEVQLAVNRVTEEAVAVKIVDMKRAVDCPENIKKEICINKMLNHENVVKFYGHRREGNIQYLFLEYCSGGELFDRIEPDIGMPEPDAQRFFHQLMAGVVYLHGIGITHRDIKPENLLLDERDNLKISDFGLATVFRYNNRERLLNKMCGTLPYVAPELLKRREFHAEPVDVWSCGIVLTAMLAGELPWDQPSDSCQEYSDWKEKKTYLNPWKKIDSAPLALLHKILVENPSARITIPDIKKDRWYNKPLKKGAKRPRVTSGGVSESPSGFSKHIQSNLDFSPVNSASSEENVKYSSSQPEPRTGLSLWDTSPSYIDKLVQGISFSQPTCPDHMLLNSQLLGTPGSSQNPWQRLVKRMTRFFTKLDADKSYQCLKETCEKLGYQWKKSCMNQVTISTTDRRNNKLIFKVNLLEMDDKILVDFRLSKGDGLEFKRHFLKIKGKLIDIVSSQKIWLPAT
measuredQuantity: pIC50
Keep it numeric: pIC50 is minus log10 of the concentration in mol/L.

[in] Identify the reported pIC50 for the following entry. `Cc1cn2c(-c3cn[nH]c3)cnc2c(Nc2cc(CN3CCC(F)(F)C3)ns2)n1.Cl`
[out] 6.19

* * *

- experimentalDetails: Oral bioavailability in Beagle dog at 10 mg/kg
- Assay type: ADME, organism-based, Canis lupus familiaris
- experimentalContext: beagle, in vivo
measuredQuantity: bioavailability

[[record]]
cpdsmiles = "Cc1cn2c(-c3cn[nH]c3)cnc2c(Nc2cc(CN3CCC(F)(F)C3)ns2)n1.Cl"
result = "20%"


# next molecule below
[in] Identify the reported bioavailability for the following entry. `Cc1cn2c(-c3cn[nH]c3)cnc2c(Nc2cc(CN3CCC(F)CC3)ns2)n1.Cl`
[out] 38%

* * *

- experimentalDetails: Clearance in cynomolgus monkey at 0.3 mg/kg, iv
- Format: ADME, organism-based, Macaca fascicularis
- Parameters: dose 0.3 mg/kg, route intravenous
- experimentalContext: in vivo
measuredQuantity: clearance

[in] Identify the reported clearance for the following entry. `Cc1cn2c(-c3cn[nH]c3)cnc2c(Nc2cc(CN3CCC(F)(F)C3)ns2)n1.Cl`
[out] 18 mL/min/kg

* * *

Reported values of bioavailability for individual entries
- experimentalDetails: Oral bioavailability in CD1 mouse at 50 mg/kg
- Assay type: ADME, organism-based
- experimentalContext: in vivo
// units = %; emit number, no label

Field: example entries. Status: answers known.
[[record]]
cpdsmiles = "Cl.[2H]C([2H])(c1cc(Nc2nc(C)cn3c(-c4cn[nH]c4)cnc23)sn1)N1CCC(F)(F)C1"
measuredquantity = "bioavailability"
unitofmeasure = "%"
result = 37

[[record]]
cpdsmiles = "Cc1cn2c(-c3cn[nH]c3)cnc2c(Nc2cc(CN3CCC(F)CC3)ns2)n1.Cl"
measuredquantity = "bioavailability"
unitofmeasure = "%"
result = 10


# next compound below
[in] Identify the reported bioavailability for the following entry. `Cc1cn2c(-c3cn[nH]c3)cnc2c(Nc2cc(CN3CCC(F)(F)C3)ns2)n1.Cl`
[out] 60

* * *

- testTarget: Tyrosine-protein kinase Lck (Homo sapiens, UniProt P06239)
- Sequence (P06239 whole entry): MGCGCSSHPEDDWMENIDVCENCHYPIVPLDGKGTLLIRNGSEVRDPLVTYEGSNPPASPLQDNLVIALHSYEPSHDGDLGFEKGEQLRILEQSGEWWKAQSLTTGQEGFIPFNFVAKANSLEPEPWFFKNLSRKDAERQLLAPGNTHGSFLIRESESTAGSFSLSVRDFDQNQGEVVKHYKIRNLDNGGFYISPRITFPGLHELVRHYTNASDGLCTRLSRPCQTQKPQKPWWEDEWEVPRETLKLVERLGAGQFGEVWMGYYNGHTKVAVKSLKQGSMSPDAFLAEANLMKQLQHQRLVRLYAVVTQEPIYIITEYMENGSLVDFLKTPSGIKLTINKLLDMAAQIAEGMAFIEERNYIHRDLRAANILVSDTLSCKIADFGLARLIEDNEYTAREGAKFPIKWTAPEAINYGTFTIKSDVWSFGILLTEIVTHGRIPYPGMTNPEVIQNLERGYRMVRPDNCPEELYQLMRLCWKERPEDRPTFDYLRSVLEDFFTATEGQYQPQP
pIC50: −log10 of the molar value.
measuredQuantity: pIC50

[in] Report measured pIC50 on Tyrosine-protein kinase Lck (Homo sapiens, UniProt P06239); entry: `CCN(Cc1cc(Nc2nc(C)cn3c(-c4cn[nH]c4)cnc23)sn1)C(C)(C)CO`
[out] > 9.00

* * *

- testTarget: Calcium/calmodulin-dependent protein kinase type IV (Homo sapiens, UniProt Q16566)
- Sequence (Q16566 whole entry): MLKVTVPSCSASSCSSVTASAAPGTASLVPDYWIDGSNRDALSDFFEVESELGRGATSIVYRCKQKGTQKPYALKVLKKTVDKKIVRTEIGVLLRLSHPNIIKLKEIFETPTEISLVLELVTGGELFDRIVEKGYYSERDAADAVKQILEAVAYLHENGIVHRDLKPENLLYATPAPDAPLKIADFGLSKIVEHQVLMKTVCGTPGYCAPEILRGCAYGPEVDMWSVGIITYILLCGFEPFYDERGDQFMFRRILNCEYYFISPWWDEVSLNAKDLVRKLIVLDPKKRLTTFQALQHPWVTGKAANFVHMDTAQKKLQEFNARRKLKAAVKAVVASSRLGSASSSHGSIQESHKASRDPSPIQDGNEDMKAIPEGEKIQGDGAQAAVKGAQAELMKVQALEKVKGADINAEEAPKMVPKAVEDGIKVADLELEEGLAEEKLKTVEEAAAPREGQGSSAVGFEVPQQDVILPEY
- experimentalDetails: Inhibition of CAMK4
Reported values of IC50 for individual entries

[[record]]
cpdsmiles = "Cc1cn2c(-c3cn[nH]c3)cnc2c(Nc2cc(CN3CCC(F)(F)C3)ns2)n1.Cl"
result = "> 100 nM"

[[record]]
cpdsmiles = "Cl.[2H]C([2H])(c1cc(Nc2nc(C)cn3c(-c4cn[nH]c4)cnc23)sn1)N1CCC(F)(F)C1"
result = "> 100 nM"


# next molecule below
[in] Identify the reported IC50 for the following entry. `CCN(Cc1cc(Nc2nc(C)cn3c(-c4cn[nH]c4)cnc23)sn1)C(C)(C)CO`
[out] > 100 nM

* * *

- experimentalDetails: AUC (0 to 6 hrs) in rat at 10 mg/kg, po
- Assay type: ADME, organism-based
- Parameters: time < 6 hr, dose 10 mg/kg, route oral
- experimentalContext: plasma
measuredQuantity: AUC(0-t) at 6 h (µM·h)
// units = µM·h; emit number, no label

Field: example entries. Status: answers known.
[[record]]
cpdsmiles = "Cc1cn2c(-c3cn[nH]c3)cnc2c(Nc2cc(CN3CCC(F)(F)C3)ns2)n1.Cl"
measuredquantity = "AUC(0-t) at 6 h"
result = 1.61

[[record]]
cpdsmiles = "Cc1cn2c(-c3cn[nH]c3)cnc2c(Nc2cc(CN(CC(F)F)C(C)(C)CO)ns2)n1.Cl"
measuredquantity = "AUC(0-t) at 6 h"
result = 0.28


# next compound below
[in] Identify the reported AUC(0-t) at 6 h for the following entry. `Cc1cn2c(-c3cn[nH]c3)cnc2c(Nc2cc(CN(CC(F)(F)F)C(C)(C)CO)ns2)n1.Cl`
[out] 0.86
